Source of measurements: patent US9969741B2

- tested.on: EXO1 (Homo sapiens)
- Sequence (Q9UQ84 1-846): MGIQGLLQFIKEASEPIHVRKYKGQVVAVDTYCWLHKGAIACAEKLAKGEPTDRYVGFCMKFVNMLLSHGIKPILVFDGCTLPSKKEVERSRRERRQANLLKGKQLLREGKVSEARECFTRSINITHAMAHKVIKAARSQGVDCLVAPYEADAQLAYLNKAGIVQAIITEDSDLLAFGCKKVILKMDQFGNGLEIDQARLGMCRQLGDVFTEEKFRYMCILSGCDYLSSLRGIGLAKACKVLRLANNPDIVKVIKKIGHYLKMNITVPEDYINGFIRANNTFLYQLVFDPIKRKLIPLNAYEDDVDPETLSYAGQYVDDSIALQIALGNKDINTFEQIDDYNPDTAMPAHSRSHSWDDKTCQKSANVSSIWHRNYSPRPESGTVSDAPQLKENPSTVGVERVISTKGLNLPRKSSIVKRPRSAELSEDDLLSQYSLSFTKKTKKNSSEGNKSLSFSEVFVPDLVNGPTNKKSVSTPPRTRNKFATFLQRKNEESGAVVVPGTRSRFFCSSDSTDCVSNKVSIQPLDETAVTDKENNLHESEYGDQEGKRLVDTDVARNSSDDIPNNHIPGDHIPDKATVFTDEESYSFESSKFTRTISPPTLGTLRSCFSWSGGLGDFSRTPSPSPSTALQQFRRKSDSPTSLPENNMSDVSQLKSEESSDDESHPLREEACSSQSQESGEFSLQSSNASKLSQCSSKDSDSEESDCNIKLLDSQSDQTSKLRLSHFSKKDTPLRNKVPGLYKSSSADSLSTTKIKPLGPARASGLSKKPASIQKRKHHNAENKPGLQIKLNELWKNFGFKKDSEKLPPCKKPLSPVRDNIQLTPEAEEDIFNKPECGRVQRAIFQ
pIC50: −log10 of the molar value.
parameter: pIC50

Recorded pIC50, per entry:
| sample.smiles | pIC50 |
| --- | --- |
| Nc1c(-c2nc3ccccc3[nH]2)nnc2cc(-c3cccc4ccccc34)nn12 | < 4.30 |
| Nc1c(-c2nc3ccccc3[nH]2)nnc2cc(-c3ccccc3)nn12 | < 4.30 |

Attention now turns to another entry.
So the reported pIC50 for CCc1nn2c(N)c(-c3nc4ccccc4[nH]3)nnc2c1-c1ccc(F)cc1 , on EXO1 (Homo sapiens), turned out to be < 4.30
